Cited source: patent US20250288581A1

# PROTOCOL DESCRIPTION: Plasma and brain exposure analysis after oral administration
# Format: in vivo
# REPORTED CONDITIONS: male, CDKL5-/Y, mouse, brain, po, 5 mg/kg, CDKL5-/Y mice, oral 5 mg/kg once per day, 14 days, 24 hours after the last dose; N=6-7; read-out: Concentration in mouse brain, Mean
# Source text: Neurobehavioral assays were run when the mice were 8-10 weeks old. Tissues were collected at the end of the study to determine plasma and CNS PK. In Table 1, “LLOQ” is the “lower limit of quantification”, and it is used to indicate the sensitivity of the assays. The numbers in plasma and brain columns are in ng/mL for plasma and ng/g for brain.
VALUE TYPE: concentration at 24 h (ng/g)
Kindly provide the numeric value in ng/g only, without the unit symbol.

Which concentration at 24 h reading was recorded for the compound `COc1cn(-c2ccc(-n3cccn3)cc2F)nc(-c2ccnn2-c2ccccc2)c1=O` ?
46.1
